system: SF-268 CNS; assay: NCI-60 one-dose screen, 48 h; conditions: 10 µM unless noted
This is part of a sample that, as a whole, favours compounds with a hit. Of some 83,000 tested, about 20% had one in any assay. Active and inactive are the calls of the source. The calls were made as follows: active = growth percent below 10; inactive = the rest.
A correct response names exactly one class from yes = active, no = inactive

Molecule | Answer label
O=C(N/N=C/c1ccc(B(O)O)s1)c1[nH]c2ccc(Br)cc2c1-c1ccccc1 | yes
FC(F)(F)c1cc2c(Cl)ncnc2n1CCN1CCCCC1 | yes
COc1ccc2nc(NC(=O)c3ccc(N(C)C)cc3)sc2c1 | no

Prompt line: Please state the recorded outcome for this molecule: O=C1Nc2cc(-c3ccc(NS(=O)(=O)c4ccc(F)c(Cl)c4)cc3)ccc2/C1=C/c1ccc[nH]1
Response line: no

Prompt line: Please state the recorded outcome for this molecule: COc1ccc(-c2cc(C)nc3[nH]c(=O)sc23)cc1
Response line: no

Prompt line: Please state the recorded outcome for this molecule: COc1cc(-c2ccc3ncnc(N4CCc5ccc(Cl)cc54)c3c2)cnc1Cl
Response line: no

Prompt line: Please state the recorded outcome for this molecule: C[C@@H]1[C@H]2C[C@@H](C[C@H]1NCc1nc3ccccc3n1C1CCCCCC1)C2(C)C
Response line: no

Prompt line: Please state the recorded outcome for this molecule: CC(C)(C)OC(=O)N1C/C(=C\c2ccc(F)cc2)C(=O)/C(=C/c2ccc(F)cc2)C1
Response line: yes

Prompt line: Please state the recorded outcome for this molecule: COc1ccc(NC(=O)NN2C(=O)c3ccccc3N(C)C2c2ccc(OC)cc2)cc1 (centres undefined)
Response line: no

Prompt line: Please state the recorded outcome for this molecule: CCCCNc1ccc2c3c(cccc13)C(=O)N(NCC(O)COc1ccc3c(C)cc(=O)oc3c1)C2=O (centres undefined)
Response line: no

Prompt line: Please state the recorded outcome for this molecule: CN1CCN(C(=O)Oc2cc3c(c4ccccc24)[C@H](CCl)CN3C(=O)c2cc3cc(OCCCN4CCC4)ccc3[nH]2)[C@@H]2CSSC[C@H]21
Response line: yes

Prompt line: Please state the recorded outcome for this molecule: Cn1cc(-c2cc(N)n3nc(-c4c[nH]c5ccccc45)cc3n2)c2cc(Cl)ccc21
Response line: yes

Prompt line: Please state the recorded outcome for this molecule: COc1cc(C=O)ccc1OC(=O)c1cc(-c2ccc(C)cc2)n(-c2ccc(S(C)(=O)=O)cc2)n1
Response line: no

Prompt line: Please state the recorded outcome for this molecule: Clc1ccccc1Nc1nnc(-c2c[nH]c3ccccc23)o1
Response line: no

Prompt line: Please state the recorded outcome for this molecule: COc1ccc(OC)c(Cn2cc(C#N)c(N)c2C(=O)c2ccc(Br)cc2)c1
Response line: no

Prompt line: Please state the recorded outcome for this molecule: O=c1[nH]c2ccccc2cc1COc1ccc(Nc2nccc(-c3ccc(Cl)cc3)n2)cc1
Response line: no

Prompt line: Please state the recorded outcome for this molecule: Cc1ccc(C(=O)Nc2cc(-n3ccnc3C)cc(C(F)(F)F)c2)cc1C#Cc1cnc2cccnn12
Response line: no

Prompt line: Please state the recorded outcome for this molecule: CCOC(=O)/C(F)=C/C1CC1CCc1ccc(OCC)cc1 (centres undefined)
Response line: no

Prompt line: Please state the recorded outcome for this molecule: COc1cc(CNC(=O)C[C@H](C)CCC=C(C)C)ccc1OCc1cn(-c2ccc(Cl)cc2Cl)nn1
Response line: no

Prompt line: Please state the recorded outcome for this molecule: Cc1oc(-c2ccccc2)nc1CN[C@@H]1C[C@@H]2C[C@H]([C@H]1C)C2(C)C
Response line: no

Prompt line: Please state the recorded outcome for this molecule: Oc1cncc(-c2ccc3ncnc(N4CCc5cc(F)c(Cl)cc54)c3c2)c1
Response line: no

Prompt line: Please state the recorded outcome for this molecule: COC(=O)c1c(C(=O)OC)c2c3ccccc3c3ccccc3n2c1C(=O)C(F)(F)F
Response line: no

Prompt line: Please state the recorded outcome for this molecule: COc1ccc(-c2cc(C(=O)OCc3ccc(Br)cc3)nn2-c2ccc(S(C)(=O)=O)cc2)cc1OC
Response line: no

Prompt line: Please state the recorded outcome for this molecule: Nc1nc(-c2ccccc2)c(N=Nc2ccc(Cl)cc2Cl)s1
Response line: yes

Prompt line: Please state the recorded outcome for this molecule: O=C(NNC(=O)c1ccc(OCc2nc3ccc(Cl)cc3[nH]2)cc1)Nc1ccc(Cl)c(Cl)c1
Response line: no

Prompt line: Please state the recorded outcome for this molecule: Cn1cc(-c2cc(N)n3nc(-c4c[nH]c5ccc(Cl)cc45)cc3n2)c2cc(Br)cnc21
Response line: yes

Prompt line: Please state the recorded outcome for this molecule: O=C(CSc1nc2ccccc2c(=O)[nH]1)Nc1ccccc1C(=O)O
Response line: no

Prompt line: Please state the recorded outcome for this molecule: Cc1nc(N)ncc1-c1ccc2ncnc(N3CCc4cc(F)c(Cl)cc43)c2c1
Response line: no

Prompt line: Please state the recorded outcome for this molecule: COc1c(B(O)O)cccc1-c1nc2ccc3cn[nH]c3c2c2c1CCCC2
Response line: no
